details: human, in vivo, po, 0.03 mg

query.smiles | AUC of conmed, geometric mean [ng·h/mL]
C#C[C@]1(O)CC[C@H]2[C@@H]3CCc4cc(O)ccc4[C@H]3CC[C@@]21C | 0.81

* * *

test: Multiple rising dose Phase 1 pharmacokinetics; format: in vivo, human; conditions: human, plasma, oral; multiple dose 150 mg, after 14 days, middle-aged female; read-out: AUC0-24

query.smiles | units.symbol | AUC0-24
O=C(Nc1ccc(C[C@@H]2CC[C@H]([C@H](O)c3ccccc3)N2)cc1)[C@@H]1CCc2nccc(=O)n21 | ng·h/mL | 3180

* * *

details: human, in vivo, po, 0.15 mg
observable: AUC of conmed, geometric mean (ng·h/mL)

query.smiles | observable | result.value
C#C[C@]1(O)CC[C@H]2[C@@H]3CCC4=CC(=O)CC[C@@H]4[C@H]3CC[C@@]21CC | AUC of conmed, geometric mean | 31
